Hey, just so you know, these numbers are from patent US20170362301A1.

Consider the following binders; for each one, report its EGF-stimulated EGFR phosphorylation in NCI-H292 cells IC50.
- MEASURED TARGET: EGFR on cells (A431, NCI-H292, NCI-H322, NCI-H441) (human, UniProt P00533 25-1210)
- ASSAY COMMENT: cell-based or functional assay
Supply the numeric figure in nM, leaving out any unit text.

[ask] Recorded EGF-stimulated EGFR phosphorylation in NCI-H292 cells IC50 of ECB147v3-PEG24 (designed binder, PEG24-maleimide on the engineered cysteines) MLPAPKNLVVSEVTEDSARLSWDDPWAFYESFLIQYQESEKVGEAIVLTVPGSERSYDLTGLCPGTEYTVSIYGVHNVYKDTNMRGLPLSAIFTTAPCPAPAPAPLPAPKNLVVSRVTEDSARLSWTAPDAAFDSFWIRYFEFLGSGEAIVLTVPGSERSYDLTGLCPGTEYVVNIMSVKGGSISPPLSAIFTTAPCPAPAPAPLAEAKVLANRELDKYGVSDYYKNLINNAKTVEGVKALLDEILAALP , please.
[reply] 1.6

[ask] Here is the next binder: ECB147v7-PEG24 (designed binder, PEG24-maleimide on the engineered cysteines) MLPAPKNLVVSEVTEDSARLSWDDPWAFYESFLIQYQESEKVGEAIVLTVPGSERSYDLTGLKPGTEYTVSIYGVHNVYKDTNMRGLPLSAIFTTAPCPAPAPAPLPAPKNLVVSRVTEDSARLSWTAPDAAFDSFWIRYFEFLGSGEAIVLTVPGSERSYDLTGLKPGTEYVVNIMSVKGGSISPPLSAIFTTAPCPAPAPAPLAEAKVLANRELDKYGVSDYYKNLINNAKTVEGVKALLDEILAALP
[reply] 1.4
